# Protocol Details: CaCo-2 permeability (bi-directional)
# Condition: human, Caco-2, pH 7.4, Mean % Recovery A2B, HBSS/HBSS; pH 7.4/7.4
Reported Metric: recovery at 120 min, 10 µM (%)

Take a look at these entries with their results.
Compound: CC1(C)Cc2cccc(OCC(=O)Nc3nc4ccccc4s3)c2O1
Test Result: 6.59
//
Compound: O=C(O)c1c(Cl)cc(O)c2c1C1C=CCC1C(c1ccc(Cl)cc1)N2 (stereo not shown)
Test Result: 86.6
//
Compound: N#Cc1c(Cl)cc(O)c2c1C1C=CCC1C(c1ccc(Cl)cc1)N2 (stereo not shown)
Test Result: 81.1
//
Compound: COc1ncc(C(C)NC2CC(C)(C)NC(C)(C)C2)cc1Cl (stereo not shown)
Test Result: 73.1
//
Compound: O=[N+]([O-])c1c(Cl)cc(O)c2c1C1C=CCC1C(c1ccc(Cl)cc1)N2 (stereo not shown)
Test Result: 15.3
//
Compound: Oc1cc(Cl)cc2c1NC(c1ccc(Cl)cc1)C1CC=CC21 (stereo not shown)
Test Result: 51.5
//
Compound: O=[N+]([O-])c1c(Cl)cc(O)c2c1C1C=CCC1C(c1ccc(Cl)cc1Cl)N2 (stereo not shown)
Test Result: 32.1

1 = Cc1[nH]nc(-c2ccc(O)c(C)c2O)c1-c1nc2ccccc2s1
2 = Oc1cc(Cl)cc2c1NC(c1ccccc1)C1CC=CC21 (stereo not shown)
3 = CC(C)C[C@@H](CO)NCc1cc(O)c2cc(F)ccc2n1
Request: // sort entries: recovery at 120 min, 10 µM, high to low Write the labels out in the order the request specifies.
Result: 1, 3, 2
(1: 102%, 3: 70.2%, 2: 30%)
